Target: Focal adhesion kinase 1 (Homo sapiens)
Test: small-molecule microarray binders of FAK, primary screen, biochemical, 635/667 nm fluorescence, BSA, DTT (AID 1130);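 note: composite of spot emission at 667 nm and signal to noise over triplicate slides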
Conditions: PTK2 binding, 635 nm fluorescence, higher = more signal
Parameter composite z-score: see the listing below.
result type: composite z-score

compound	reported result
CC(C)[C@@H](OCc1ccccc1)[C@H](C)C=NO[C@@H](C)c1cn([C@H](CO)Cc2ccccc2)nn1	-0.0232
CC(=O)OC[C@H]1O[C@H](CC=NOC(C)CN2CCCc3nc(C)c(C)cc32)C=C[C@@H]1OC(C)=O (stereo not given in full)	0.246
CON=C(C)CCC(=O)OC[C@H]1O[C@H](C#Cc2ccccc2)C=C[C@@H]1Oc1ccc(C)cc1	0.122
O=C1C=C[C@@H](O)[C@@H]2[C@@H]3C(=O)N(c4cccc(Oc5ccccc5)c4)C(=O)[C@@H]3CC[C@@H]12	-0.183
CC(C)(C)N1C(=O)[C@H]2[C@H]3[C@H](O)[C@H](O)CC(=NOC[C@@H](O)COCc4ccco4)[C@@H]3CC[C@H]2C1=O	-0.0584
CC(C)CN1CCc2nc(-c3ccccc3)c3c(c2C1)CO[C@@H](C)C3	0.741
CCOC(=O)CCN1C(=O)[C@H]2[C@H]3[C@H](O)[C@H](O)CC(=O)[C@@H]3CC[C@H]2C1=O	-0.0508
CCCCOC(OCCCC)C(O)CSc1ccc2ccccc2c1 (stereo not given)	0.0661
CCc1cc2c(nc1CC)CCN(CCC(C)=NO[C@@H]1O[C@H](COC(C)=O)[C@@H](OC(C)=O)[C@H](OC(C)=O)[C@H]1OC(C)=O)C2	0.0487
CCOC(=O)NN=C1C[C@@H](O)[C@@H](O)[C@@H]2[C@@H]3C(=O)N(c4ccc(F)cc4F)C(=O)[C@@H]3CC[C@H]12	-0.0292
CC(C)(C)N1C(=O)[C@H]2[C@H]3[C@H](O)[C@H](O)CC(=NNC(=O)OCc4ccccc4)[C@@H]3CC[C@H]2C1=O	0.32
O=C1[C@H]2[C@H]3[C@H](O)[C@H](O)CC(=NOC[C@@H](O)COCc4ccco4)[C@@H]3CC[C@H]2C(=O)N1Cc1ccc2c(c1)OCO2	-0.347
O=C1C=C[C@@H](O)[C@@H]2[C@@H]3C(=O)N(Cc4ccc5c(c4)OCO5)C(=O)[C@@H]3CC[C@@H]12	0.185
COC(=O)[C@@H]1CC[C@H](C)[C@@H](c2ccc(C)cc2)N1C(=O)c1ccc(C=NOC[C@H]2O[C@H](c3ccccc3)C=C[C@@H]2Oc2ccc(OC)cc2)cc1	-0.0204
CC(C)=NOC[C@@H](O)[C@H]1O[C@@H]2OC(C)(C)O[C@@H]2[C@H]1O	0.17

###

Biological target: Carbonic anhydrase 2 (Homo sapiens) (UniProt P00918)
Experiment: CAII small-molecule binders, profiling panel, biochemical, small-molecule microarray, Alexa647-labelled CAII (AID 1122)
Conditions: CAII-A647 binding fluorescence, higher = more signal
Parameter composite z-score: see the listing below.

molecule	composite z-score
CC(C)[C@@H](OCc1ccccc1)[C@H](C)CON=C1[C@H]2CCn3c(=O)n(-c4ccccc4)c(=O)n3[C@H]2[C@H](O)[C@@H]2O[C@H]12	-0.0291
CC(C)=CCCC(C)=CCON=C1C[C@@H](O)[C@@H](O)[C@@H]2[C@@H]3C(=O)N(Cc4ccc5c(c4)OCO5)C(=O)[C@@H]3CC[C@H]12	0.389
COC(OC)[C@@H](C)[C@H](OC)[C@@H](C)[C@H](OC)c1ccccc1	-0.552
CC=CC1=C(CO)[C@H](O)[C@H]2O[C@H]2[C@@H]1O	0.17
CC(C)=CCCC(C)=CCON=C1C[C@@H](O)[C@@H](O)[C@@H]2[C@@H]3C(=O)N(C4CCCCC4)C(=O)[C@@H]3CC[C@H]12	0.106
CCOC(=O)[C@H](CC(C)C)NC(=O)CCC1CC(OC(=O)NCCc2ccc(F)cc2)CC2(CCCC(COC(=O)NCCOC)O2)O1 (some centres not stated)	0.0663
O=C1[C@H]2[C@H]3[C@H](O)[C@H](O)CC(=NO[C@@H]4O[C@H](CO)[C@@H](O)[C@H](O)[C@H]4O)[C@H]3CC[C@H]2C(=O)N1C[C@@H]1CCCO1	-0.408
